src = patent US4154837A

# protocol_summary: in vivo
# experimental_setup: mouse, po, mice, observation period 14 days
# Protocol: (3.) determination of acute toxicity The acute toxicity of the test compounds was determined in mice (observation period: 14 days) after oral or intravenous administration. The LD50 was calculated from the percentage of the animals that dies during the observation period after administration of varying doses: […]
measured_parameter: LD50 at 336 h (mg/kg)
One number for each entry, in mg/kg.

INPUT: For the compound shown here, COc1ccc2cc(-c3ccc(OCC(O)CNC(C)(C)C)cc3)n(C)c(=O)c2c1 (centres unmarked) [A] , give the reported LD50 at 336 h.
OUTPUT: 460

Continuing:
INPUT: # get_value(readout='LD50 at 336 h', item= COc1ccc(-c2cc3ccc(OC)cc3c(=O)n2C)c(OCC(O)CNC(C)C)c1.O=C(O)C(=O)O (centres unmarked) [C] )
OUTPUT: 500

---

# Test system: blood circulation of dogs
# protocol_summary: Effect on blood circulation (arterial blood pressure, heart rate, contractility dp/dt max) in anesthetized dogs
# Type: in vivo
# experimental_setup: 1.0 mgm/kg i.v.
# Procedure: (1.) Effect on blood circulation: The blood circulation tests were performed on dogs with a body weight of 19-30 kg under chloralose-urethane-nembutalanesthesia (54+270+10 mg/kg i.v.). […] The arterial blood-pressure was measured in an arteria carotis with a Statham-transducer; the heart rate was measured electronically from the sequence of R-peaks of the electrocardiogram. […] All parameters were recorded by means of a direct-writer. […]
Binary label based on Decrease in heart rate with cut-off 30 beats/min: below gives Fulfilled, not below gives Not fulfilled.

Previously resolved entries follow.
INPUT: Hello, I'm reviewing records and need to know if Decrease in heart rate of COc1ccc2cc(-c3ccccc3OCC(O)CNC(C)C)n(C)c(=O)c2c1.O=C(O)C(=O)O (stereo not drawn) is below 30 beats/min. Could you check?
OUTPUT: Fulfilled

INPUT: Is Decrease in heart rate strictly under 30 beats/min for the entry COc1ccc2cc(CCc3ccc(OCC(O)CNC(C)C)cc3)n(C)c(=O)c2c1 (stereo not drawn) ?
OUTPUT: Not fulfilled

INPUT: Consider the compound COc1cc2cc(-c3ccc(OCC(O)CNC(C)(C)C)cc3)n(C)c(=O)c2cc1OC (stereo not drawn) . Is its Decrease in heart rate strictly less than 30 beats/min?
OUTPUT: Fulfilled

Further cases:
INPUT: Please state whether Decrease in heart rate is below 30 beats/min for COc1ccc(-c2cc3ccc(OC)cc3c(=O)n2C)c(OCC(O)CNC(C)C)c1.O=C(O)C(=O)O (stereo not drawn)
OUTPUT: Not fulfilled

INPUT: Here's an entry: COc1cc2cc(-c3ccc(OCC(O)CNC(C)C)cc3)n(C)c(=O)c2cc1OC (stereo not drawn) . Is its Decrease in heart rate below 30 beats/min?
OUTPUT: Fulfilled

INPUT: Lab note: Decrease in heart rate threshold 30 beats/min. Does this compound come in strictly under it? COc1ccc2cc(-c3ccc(OCC(O)CNC(C)(C)C)cc3)n(C)c(=O)c2c1 (stereo not drawn)
OUTPUT: Fulfilled

---

# System: blood circulation of dogs
# protocol_summary: Effect on blood circulation (arterial blood pressure, heart rate, contractility dp/dt max) in anesthetized dogs
# Format: in vivo
# experimental_setup: 1.0 mgm/kg i.v., left ventricle
measured_parameter: Decrease of contractility, duration (min)
One number for each entry, in min.

INPUT: Which Decrease of contractility, duration reading was recorded for the compound COc1ccc2cc(-c3ccc(OCC(O)CNC(C)(C)C)cc3)n(C)c(=O)c2c1 (stereo not drawn) ?
OUTPUT: 44

INPUT: Could you tell me which Decrease of contractility, duration is on file for COc1ccc2cc(CCc3ccc(OCC(O)CNC(C)C)cc3)n(C)c(=O)c2c1 (stereo not drawn) ?
OUTPUT: 47

INPUT: Dear colleague, I am looking for the recorded Decrease of contractility, duration of the following compound: COc1cc2cc(-c3ccc(OCC(O)CNC(C)(C)C)cc3)n(C)c(=O)c2cc1OC (stereo not drawn)
OUTPUT: 51

INPUT: What value of Decrease of contractility, duration has been recorded for this entry: COc1ccc(-c2cc3ccc(OC)cc3c(=O)n2C)c(OCC(O)CNC(C)C)c1.O=C(O)C(=O)O (stereo not drawn)
OUTPUT: 50

INPUT: Would you kindly share the measured Decrease of contractility, duration for COc1cc2cc(-c3ccc(OCC(O)CNC(C)C)cc3)n(C)c(=O)c2cc1OC (stereo not drawn) ?
OUTPUT: 43

For the next question, use this compound.
INPUT: Fill in: Decrease of contractility, duration of COc1ccc2cc(-c3ccccc3OCC(O)CNC(C)C)n(C)c(=O)c2c1.O=C(O)C(=O)O (stereo not drawn) is ___
OUTPUT: 47

---

Please go through the items and note down their inhibition at 10 µg/mL.
# Test system: isolated guinea pig auricle
# protocol_summary: effect on the force of contraction and frequency of the isolated guinea pig auricle
# experimental_setup: Cavia porcellus; 10^-5 gm/ml, 37° C.; read-out: Decrease in frequency
Please answer using the number first and the unit second.

INPUT: Observed inhibition at 10 µg/mL on isolated guinea pig auricle for COc1cc2cc(-c3ccc(OCC(O)CNC(C)C)cc3)n(C)c(=O)c2cc1OC (stereo not shown) [F] , please.
OUTPUT: 22%

INPUT: Under isolated guinea pig auricle: inhibition at 10 µg/mL value of COc1ccc(-c2cc3ccc(OC)cc3c(=O)n2C)c(OCC(O)CNC(C)C)c1.O=C(O)C(=O)O (stereo not shown) [C] ?
OUTPUT: 29%

INPUT: So what inhibition at 10 µg/mL did COc1ccc2cc(-c3ccc(OCC(O)CNC(C)C)c(OC)c3)n(C)c(=O)c2c1 (stereo not shown) [G] get with isolated guinea pig auricle?
OUTPUT: 22%

Continuing:
INPUT: Lookup: inhibition at 10 µg/mL / isolated guinea pig auricle / COc1ccc2cc(-c3ccc(OCC(O)CNC(C)(C)C)cc3)n(C)c(=O)c2c1 (stereo not shown) [A]
OUTPUT: 23%

---

# protocol_summary: in vivo
# experimental_setup: mouse, iv, mice, observation period 14 days
measured_parameter: LD50 at 336 h

Solved entries:
INPUT: I have this compound here, COc1ccc2cc(-c3ccccc3OCC(O)CNC(C)C)n(C)c(=O)c2c1.O=C(O)C(=O)O (stereo not drawn) , and I need its recorded LD50 at 336 h.
OUTPUT: 47 mg/kg

INPUT: # get_value(readout='LD50 at 336 h', item= COc1ccc(-c2cc3ccc(OC)cc3c(=O)n2C)c(OCC(O)CNC(C)C)c1.O=C(O)C(=O)O (stereo not drawn) )
OUTPUT: 50 mg/kg

In the following, a different compound is considered.
INPUT: Please give the measured LD50 at 336 h for this compound: COc1ccc2cc(-c3ccc(OCC(O)CNC(C)(C)C)cc3)n(C)c(=O)c2c1 (stereo not drawn)
OUTPUT: 62 mg/kg
